Attribution: patent US20220362275A1

assay: Oral bioavailability anticipated from human clinical data; conditions: in vivo, based on human clinical data, read-out: part of an administered dose orally bioavailable
Measurement kind: bioavailability

Record CO[C@H]1C[C@H](O[C@H]2CC[C@@]3(C)[C@H](CC[C@@H]4[C@@H]3CC[C@]3(C)[C@@H](C5=CC(=O)OC5)[C@@H](OC(C)=O)C[C@]43O)C2)O[C@@H](C)[C@@H]1O [oleandrin] , field bioavailability: 50 to 75%
